# SYSTEM_NAME: h5-HT2A receptor (CHO cells) (Homo sapiens)
# Construct: expressed in transfected cells; host or cells: CHO cells
# Sequence (P28223 whole entry): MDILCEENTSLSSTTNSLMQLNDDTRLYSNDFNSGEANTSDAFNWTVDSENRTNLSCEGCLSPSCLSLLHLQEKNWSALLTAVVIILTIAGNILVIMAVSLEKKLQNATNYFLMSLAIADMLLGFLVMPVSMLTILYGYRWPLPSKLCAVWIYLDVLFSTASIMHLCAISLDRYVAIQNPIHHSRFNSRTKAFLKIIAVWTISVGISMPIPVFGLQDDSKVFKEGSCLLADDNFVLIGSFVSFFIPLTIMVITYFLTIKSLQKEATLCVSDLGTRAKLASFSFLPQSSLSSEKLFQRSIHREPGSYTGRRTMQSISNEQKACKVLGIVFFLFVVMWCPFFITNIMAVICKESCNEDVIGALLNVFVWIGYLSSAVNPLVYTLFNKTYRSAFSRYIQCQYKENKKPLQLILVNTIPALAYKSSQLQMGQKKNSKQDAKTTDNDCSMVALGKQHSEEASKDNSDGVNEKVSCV
# ASSAY_METHOD_TEXT: Functional activity, FLIPR calcium assay, h5-HT2A
# Format: cell-based
Where a name gives a salt, the structure may show the parent alone.
Would you kindly list pEC50 for each of these compounds?
Answers are plain numbers, as −log10 of the molar value.

For every listed record, write down its pEC50.
1. C[C@H]1CN2c3cc(Cl)ccc3C[C@@H]2CN1 [Example 11, hydrochloride]
2. Clc1ccc2c(n1)N1CCNCC1C2 (racemic)
3. Clc1ccc2c(c1)N1CCNCC1C2 (racemic) [Example 1, hydrochloride]
4. Clc1ccc2c(c1)N1CCNC[C@@H]1C2 [Example 7, hydrochloride]
5. Clc1ccc2c(c1)N1CCNC[C@H]1C2 [Example 8, hydrochloride]

*A*
[6.28, 5.78, 6.29, 6.84, 7.00]

For every listed record, write down its pEC50.
1. Brc1ccc2c(c1)N1CCNCC1C2 (racemic) [Example 4, hydrochloride]
2. CSc1ccc2c(c1)N1CCNCC1C2 (racemic) [Example 13, fumarate]
3. Clc1cccc2c1CC1CNCCN21 (racemic) [Example 3, hydrochloride]

*A*
6.61
6.75
5.99
